Tested on: HBV
Experiment: Anti-HBV activity in vitro in HepG2.2.15 cells (extracellular HBV DNA by qPCR)
Type: cell-based, Hepatitis B virus
Details: HepG2.2.15 cells; in-house data; read-out: EC50
pEC50: −log10 of the molar value.

{"Compound": "COC(=O)C1=C(C)NC(c2ncc(F)cc2F)=N[C@H]1c1ccc(F)cc1Cl [Bay 41-4109, reference compound]", "Tested system": "HBV", "pEC50": 7.06}

* * *

Experiment: Cytotoxicity (CC50) in HepDE19 cells, CCK-8 cell viability
Type: cell-based
Conditions: human, HepDE19 cells

{"Molecule": "COC(=O)C1=C(CN2CC(F)(F)C[C@H]2C(=O)O)NC(c2nccs2)=N[C@H]1c1ccc(F)cc1Br [Example 84]", "CC50 at 5 days": "> 100 µM"}

This collection of values is drawn from patent US9447086B2.
